# procedure summary: PSAC antagonists in infected red cells, primary screen, cell-based, P. falciparum Indochina, OD700, 2 h (AID 1155);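 also: lysis reports solute entry through the parasite surface anion channel PSAC; channel blockers reduce lysis of infected cells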
# measurement context: P. falciparum Indochina infected erythrocytes, osmotic lysis OD700; higher = more signal, called active from +8 up or from −8 down
Active and inactive are the calls of the source.
Recorded z-score values for a group of compounds are listed next.

// worked examples, z-score included
compound	measured parameter	observed value
C=C(COC)C(=O)CC[C@@H](OC(=O)c1cccnc1)c1ccc(CO)o1	z-score	0.145 (inactive)
Cc1ccccc1C(O)C1C=CC2C(=O)N(C)C(=O)C2N1Nc1ccccc1 (configuration not stated)	z-score	0.737 (inactive)
CCCCC=C[C@@H](NC(=O)c1ccc(C(=O)OC)cc1)c1ccccc1	z-score	0.589 (inactive)

Entry `Cc1ccc([C@H]2[C@H](C(=O)O)[C@H](Sc3ccccc3)[C@@H](C(C)C)N2S(=O)(=O)c2ccc(C)cc2)cc1` ; z-score = 0.456 (inactive)

Entry `COc1ccc(C#Cc2ccc3c(c2)[C@]2(C(=O)N3)[C@H](c3ccc(O)cc3)N3[C@H](c4ccccc4)[C@H](c4ccccc4)OC(=O)[C@H]3[C@@H]2C(=O)N2CCCCCCC2)cc1` ; z-score = -0.763 (inactive)

Entry `COC(=O)C[C@@H]1C[C@H](C)[C@]2(O1)C(=O)N(Cc1ccccc1)c1ccc(NC(C)=O)cc12` ; z-score = -0.0327 (inactive)

Entry `COCCOC(=O)N1C(=O)[C@@]2(c3cc(C#CCNC(N)=O)ccc31)[C@H](c1ccc(OCCO)cc1)N1[C@H](c3ccccc3)[C@H](c3ccccc3)OC(=O)[C@H]1[C@@H]2C(=O)N1CCc2cc(OC)c(OC)cc2C1` ; z-score = 1.89 (inactive)

----------
# Tested on: Wnt5a (protein binding on small-molecule microarray)
# procedure summary: Wnt5a binders on small-molecule microarray, primary screen, biophysical, 635/667 nm fluorescence (AID 1142);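 also: fluorescence read at 667 nm with signal to noise per printed feature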
# measurement context: 635 nm fluorescence, higher = more signal
Classify as follows. Reported composite z-score greater than or equal to 0.04: Criterion met. Reported composite z-score below: Criterion not met.

Example entries and their recorded answers appear below.
compound	target system	label value
COCC(=C=CC[C@@H](O)c1ccc(CO)o1)CCO	Wnt5a (protein binding on small-molecule microarray)	Criterion met
C#CCN(C(/C=C/c1ccccc1)CO)C(C(=O)O)c1ccccc1 (stereo unspecified)	Wnt5a (protein binding on small-molecule microarray)	Criterion not met
CCOC(=O)C1=C[C@@H](C(C)C)N(S(=O)(=O)c2ccc(C)cc2)[C@H]1c1ccc(C(C)C)cc1	Wnt5a (protein binding on small-molecule microarray)	Criterion met
CC(C)N1C(=O)C[C@@](C(=O)NCc2ccccc2)(c2ccc([N+](=O)[O-])cc2)[C@H]1c1ccc(CO)cc1	Wnt5a (protein binding on small-molecule microarray)	Criterion not met
NC(=O)NCC#Cc1ccc2c(c1)[C@]1(C(=O)N2)[C@H](C(=O)NC[C@H](O)c2ccccc2)[C@H]2C(=O)O[C@H](c3ccccc3)[C@H](c3ccccc3)N2[C@@H]1c1ccc(O)cc1	Wnt5a (protein binding on small-molecule microarray)	Criterion met
CC(C)N1CC=CC23O[C@@H]4C=CCOC(=O)[C@@H]4[C@H]2C(=O)N(CCO)[C@@H]3C1=O (stereo partly specified)	Wnt5a (protein binding on small-molecule microarray)	Criterion not met
CCCCC(O)C1C=CC2C(=O)N(C3CCCCC3)C(=O)C2N1Nc1ccc(OC)cc1 (stereo unspecified)	Wnt5a (protein binding on small-molecule microarray)	Criterion met
Cc1ccc(S[C@]2(C(=O)NCc3ccccc3)CC(=O)N(Cc3ccccc3Cl)[C@@H]2c2ccc(CO)cc2I)cc1	Wnt5a (protein binding on small-molecule microarray)	Criterion not met
CC(=O)NCCCC[C@@H]1NC(=O)[C@@H]2C[C@H](C(=O)NCCCCCCNC(=O)CS)[C@H](c3ccc(O)cc3)N2C1=O	Wnt5a (protein binding on small-molecule microarray)	Criterion not met
O=C1OCC=C[C@H]2OC34C=CCN(c5ccc(Cl)cc5)C(=O)[C@H]3N(CCCCCCO)C(=O)[C@@H]4[C@@H]12 (stereo partly specified)	Wnt5a (protein binding on small-molecule microarray)	Criterion not met

In plain terms: is recorded composite z-score at least 0.04 for `COc1ccc([Si](C)(C)[C@@H]2[C@@H](CCn3cc([C@H](O)c4ccccc4)nn3)O[C@]3(C(=O)N(Cc4ccc(N5C(=O)c6cccc7cccc5c67)cc4)c4ccccc43)[C@H]2C)cc1` ?
Criterion not met

In plain terms: is recorded composite z-score at least 0.04 for `[N-]=[N+]=Nc1ccccc1[C@@H]1OC(c2ccc(OCCCO)cc2)=N[C@]1(CCS(=O)(=O)c1ccccc1)C(=O)N1CCOCC1` ?
Criterion met

In plain terms: is recorded composite z-score at least 0.04 for CN1CCC(CCCO)=CC1c1ccc(CN2CCCC2)cc1 (stereo unspecified) ?
Criterion met

In plain terms: is recorded composite z-score at least 0.04 for `O=C1C[C@@](C(=O)NC2CC2)(c2ccc([N+](=O)[O-])cc2)[C@@H](c2ccc(CO)cc2)N1CC12CC3CC(CC(C3)C1)C2` ?
Criterion met

In plain terms: is recorded composite z-score at least 0.04 for `[N-]=[N+]=Nc1ccccc1C[C@]1(C(=O)NCCN2CCOCC2)N=C(c2ccc(OCCCO)cc2)O[C@H]1c1ccccc1` ?
Criterion met

----------
# procedure summary: A549 cell viability effects, profiling panel, calcein-AM fluorescence, 48 h, basal (AID 1162); also: test concentration not given here
# measurement context: higher = more signal
Binned z-score; ranges: class A: < -0.4; class B: ≥ -0.4 and < 0.9; class C: ≥ 0.9

compound	label value
CCCCCCCCCCC(O)C1C=CC2C(=O)N(Cc3ccccc3)C(=O)C2N1n1cnnc1 (stereo not given)	class A
COc1cc2c(cc1OC)CN(C(=O)[C@@H]1[C@H]3C(=O)O[C@H](c4ccccc4)[C@H](c4ccccc4)N3[C@H](c3ccccc3OCCO)[C@@]13C(=O)Nc1ccc(C#CCNC(N)=O)cc13)CC2	class C
CS(=O)(=O)CCOC(=O)C1=CC(CCCO)=CC(c2cccs2)N(Cc2cc3c(cc2Br)OCO3)C=C1C(=O)OCCS(C)(=O)=O (stereo not given)	class C
C=CCC(OC(C)=O)[C@@H]1[C@@H](N(Cc2cccc3ccccc23)C(=O)c2cccc3ccccc23)c2cc(OCCCO)ccc2N1C(=O)c1ccc2ccccc2n1 (stereo not given in full)	class A
COC(=O)c1ccc(C(O)C2C=CC3C(=O)N(C)C(=O)C3N2NC(=O)OC(C)(C)C)o1 (stereo not given)	class B

Which category fits this record: `O=C(CS)NCCCCCCNC(=O)[C@@H]1C[C@@H]2C(=O)N3CCC[C@H]3C(=O)N2[C@@H]1c1ccc(O)cc1`
class A

Which category fits this record: CC(C)C(O)C1C=CC2C(=O)N(c3ccccc3)C(=O)C2N1Nc1ccc(C#N)cc1 (stereo not given)
class A

----------
# procedure summary: basal RPMI8226 viability, no added stimulus, profiling panel, cell-based, calcein-AM fluorescence, 48 h, PK04 Diversity Set (AID 1166);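 also: cells grown under basal conditions without added stimulus; test concentration not given here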
# measurement context: RPMI8226 myeloma viability, higher = more signal
The label is Y for z-score below -1 and N for z-score equal to or exceeding -1.

compound	label value
COCCOC(=O)N1C(=O)[C@@]2(c3cc(C#CCNC(N)=O)ccc31)[C@H](c1ccc(O)cc1)N1[C@H](c3ccccc3)[C@H](c3ccccc3)OC(=O)[C@H]1[C@@H]2C(=O)Nc1nc2ccccc2s1	N

Problem: For the compound `O=C1O[C@@H](c2ccccc2)[C@@H](c2ccccc2)N2[C@@H](c3ccc(O)cc3)[C@]3(C(=O)Nc4ccc(C#CC5(O)CCCCCC5)cc43)[C@@H](C(=O)N3CCCCCCC3)[C@H]12` , is z-score under -1?
Y

Problem: For the compound `O=C1O[C@H](c2ccccc2)[C@H](c2ccccc2)N2[C@H]1[C@@H](C(=O)O)[C@]1(C(=O)Nc3ccc(C#CC4=CCCCC4)cc31)[C@H]2c1ccc(OCCO)cc1` , is z-score under -1?
Y

Problem: For the compound `COCCOC(=O)N1C(=O)[C@@]2(c3cc(C#CC4(O)CCCCCC4)ccc31)[C@H](C(=O)N1CCCCCCC1)[C@H]1C(=O)O[C@H](c3ccccc3)[C@H](c3ccccc3)N1[C@@H]2c1ccccc1OCCO` , is z-score under -1?
Y

Problem: For the compound `CC(=O)Nc1cc(Br)ccc1C(=O)O` , is z-score under -1?
N

Problem: For the compound CC(c1ccccc1)C(O)C1C=CC2C(=O)NC(=O)C2N1Nc1ccccn1 (stereo unspecified) , is z-score under -1?
N

----------
# target system: Fibroblast growth factor 10 (Homo sapiens)
# procedure summary: FGF10 binders on small-molecule microarrays, primary screen, biochemical, small-molecule microarray, 635 nm fluorescence (AID 1102)
# measurement context: FGF10 binding, fluorescence 635 nm, higher = more signal
Recorded composite z-score values for a group of compounds are listed next.
Lab note: jot down the number only; don't add units.

// worked examples, composite z-score included
compound	observed value
Cc1ccc(S[C@]2(C(=O)O)CC(=O)N(C3Cc4ccccc4C3)[C@@H]2c2ccc(CO)cc2I)cc1	-0.345
O=c1cccc(CCc2ccccc2)o1	0.228

Entry CC(C)c1ccc(NN2C(C(O)c3cccc(O)c3)C=CC3C(=O)N(c4ccccc4)C(=O)C32)cc1 (stereo not given) ; composite z-score = 1.39

Entry `Cc1c(NC(=O)CC#N)c(=O)n(-c2ccccc2)n1C` ; composite z-score = 0.118

Entry O=C1OCCC/C=C\[C@H]2OC34C=CCN(Cn5nnc6ccccc65)C(=O)[C@H]3N(CCCCCO)C(=O)[C@@H]4C12 (stereo not given in full) ; composite z-score = -1.08
